This collection of values is drawn from patent US8022091B2.

# tgt: human Edg-1 (S1P1) (Homo sapiens)
# Construct: expressed in transfected cells; host or cells: HEK-293
# Sequence (P21453 whole entry): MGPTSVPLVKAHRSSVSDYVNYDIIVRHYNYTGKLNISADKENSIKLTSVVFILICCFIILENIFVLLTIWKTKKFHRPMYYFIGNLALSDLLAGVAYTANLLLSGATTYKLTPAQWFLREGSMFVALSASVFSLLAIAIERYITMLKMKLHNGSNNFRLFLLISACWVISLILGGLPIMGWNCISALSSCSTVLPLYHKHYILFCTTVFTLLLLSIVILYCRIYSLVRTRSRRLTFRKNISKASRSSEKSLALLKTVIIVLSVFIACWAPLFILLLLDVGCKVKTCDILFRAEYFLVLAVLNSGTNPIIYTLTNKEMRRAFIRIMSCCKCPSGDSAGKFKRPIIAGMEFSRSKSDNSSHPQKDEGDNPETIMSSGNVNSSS
# assay-method-text: S1P1 binding assay: inhibition of [33P]-S1P binding to membrane fraction of HEK-293 cells transferred with the human Edg-1 (S1P1) gene
# condition-info: test compound 10 μM; inhibition of [33P]-S1P binding, membrane fraction
Recorded inhibition at 10 µM values for a group of compounds are listed next.
The reply should contain only the number, in %.

What value of inhibition at 10 µM on human Edg-1 (S1P1) (Homo sapiens) does CCn1c(Oc2cccc(N3CCN(C)CC3)c2)nnc1[C@@H](C)NS(=O)(=O)c1cc(C)sc1C have? 85.2

Same question for CCn1c(Oc2ccc3cc[nH]c3c2)nnc1[C@@H](C)NS(=O)(=O)c1cc(F)cc(F)c1 please. 97.3

Same question for CCCCCCCCCCS(=O)(=O)N[C@H](C)c1nnc(Oc2cccc(N3CCN(C)CC3)c2)n1CC please. 64.4

Now look at this entry.
What value of inhibition at 10 µM on human Edg-1 (S1P1) (Homo sapiens) does CCn1c(Oc2cccc(N3CCN(C)CC3)c2)nnc1[C@@H](C)NS(=O)(=O)c1ccc(Cl)c(S(N)(=O)=O)c1 have? 71.7
